Target: A2BR (Homo sapiens, UniProt P29275)
Sequence (P29275 1-332): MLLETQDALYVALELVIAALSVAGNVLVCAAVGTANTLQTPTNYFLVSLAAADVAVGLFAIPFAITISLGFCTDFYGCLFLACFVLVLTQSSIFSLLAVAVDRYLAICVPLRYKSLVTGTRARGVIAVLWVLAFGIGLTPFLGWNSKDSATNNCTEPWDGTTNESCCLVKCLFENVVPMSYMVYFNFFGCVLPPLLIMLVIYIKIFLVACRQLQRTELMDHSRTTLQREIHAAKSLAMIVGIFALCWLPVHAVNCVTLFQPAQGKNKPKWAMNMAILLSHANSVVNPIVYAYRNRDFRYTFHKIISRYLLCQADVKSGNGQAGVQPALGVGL
Assay: A2BR potency (KB), Table 1
Assay type: biochemical
reportedProperty: Kb

Solved entries:
compound: COc1cccc2c(-c3cn(Cc4ccn(CCN5CCOCC5=O)n4)nn3)nc(N)nc12
Kb: < 100 nM

compound: COc1cccc2c(-c3cn(Cc4ccn([C@H]5CCOC5)n4)nn3)nc(N)nc12
Kb: < 100 nM

compound: CC(C)(CO)n1ccc(Cn2cc(-c3nc(N)nc4c(F)cccc34)nn2)n1
Kb: < 100 nM

compound: N#Cc1ccc2c(-c3cn(Cc4ccn(C5CC5)n4)nn3)nc(N)nc2c1
Kb: < 100 nM

Give reported Kb value for Nc1nc(-c2cn(Cc3ccn[nH]3)nn2)c2cccc(F)c2n1
< 100 nM

Give reported Kb value for COc1cccc2c(-c3cn(Cc4ccnn4CC4CCCO4)nn3)nc(N)nc12 (stereo not drawn)
100 to 1000 nM

Give reported Kb value for COc1c(F)ccc2c(-c3cn(Cc4ccn(C(C)C)n4)nn3)nc(N)nc12
< 100 nM

Give reported Kb value for COc1cccc2c(-c3cn(Cc4ccn(CCN5CCCC5=O)n4)nn3)nc(N)nc12
100 to 1000 nM

Give reported Kb value for CC(C)n1ccc(Cn2cc(-c3cc(N)nc4c(F)cccc34)nn2)n1
< 100 nM

Give reported Kb value for COc1cccc2c(-c3cn(Cc4ccn(CC(=O)N[C@H]5CCOC5)n4)nn3)nc(N)nc12
100 to 1000 nM

Give reported Kb value for COc1ccc2c(-c3cn(Cc4ccn(C(C)(C)CO)n4)nn3)nc(N)nc2c1
< 100 nM

Give reported Kb value for COc1cccc2c(-c3cn(Cc4ccn(C(C)C(=O)O)n4)nn3)nc(N)nc12 (stereo not drawn)
100 to 1000 nM

Give reported Kb value for COc1cccc2c(-c3cn(Cc4ccnn4C)nn3)nc(N)nc12
< 100 nM

Give reported Kb value for COc1cccc2c(-c3cn(Cc4ccn(CC(=O)NCC5(O)CC5)n4)nn3)nc(N)nc12
< 100 nM

Give reported Kb value for COc1cccc2c(-c3cn(Cc4ccn(C(C)C(N)=O)n4)nn3)nc(N)nc12 (stereo not drawn)
< 100 nM

* * *

Target: UniProt:P29274
Sequence (P29274 whole entry): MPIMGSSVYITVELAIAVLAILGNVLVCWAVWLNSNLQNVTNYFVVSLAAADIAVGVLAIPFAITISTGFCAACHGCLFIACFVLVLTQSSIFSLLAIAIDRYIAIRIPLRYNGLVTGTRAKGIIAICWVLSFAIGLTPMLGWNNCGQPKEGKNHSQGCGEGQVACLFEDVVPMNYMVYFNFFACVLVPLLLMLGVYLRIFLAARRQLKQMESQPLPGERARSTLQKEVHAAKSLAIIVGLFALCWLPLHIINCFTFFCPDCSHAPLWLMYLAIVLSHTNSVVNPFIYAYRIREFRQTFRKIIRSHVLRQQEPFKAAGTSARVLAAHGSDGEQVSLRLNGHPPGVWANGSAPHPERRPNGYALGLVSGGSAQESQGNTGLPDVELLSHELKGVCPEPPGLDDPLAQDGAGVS
Assay: A2AR potency (KB), Table 1
Format: biochemical
Details: read-out: Potency: A2AR KB (A2A)
Quick reference for Kb among some compounds

Solved entries:
compound: COc1cccc2c(-c3cn(Cc4ccn(CC(=O)O)n4)nn3)nc(N)nc12
Kb: 100 to 1000 nM

compound: COc1c(F)ccc2c(-c3cn(Cc4ccn(C(C)C)n4)nn3)nc(N)nc12
Kb: < 100 nM

compound: CCn1ccc(Cn2cc(-c3nc(N)nc4c(OC)cccc34)nn2)n1
Kb: < 100 nM

Give reported Kb value for COc1cccc2c(-c3cn(Cc4ccn(C(C)C(N)=O)n4)nn3)nc(N)nc12 (centres unmarked)
< 100 nM

Give reported Kb value for COc1cccc2c(-c3cn(Cc4ccn(CC(=O)N[C@H]5CCOC5)n4)nn3)nc(N)nc12
< 100 nM
